Target: T1, Extracellular domain of cyno PD1 (cPD1-ECD) (Macaca fascicularis (cynomolgus))
T1 construct: Expressed with a hexahistidine tag or as Fc fusion; also called cynoPD1-ECD; cynoPD-1-ECD
T1 chain: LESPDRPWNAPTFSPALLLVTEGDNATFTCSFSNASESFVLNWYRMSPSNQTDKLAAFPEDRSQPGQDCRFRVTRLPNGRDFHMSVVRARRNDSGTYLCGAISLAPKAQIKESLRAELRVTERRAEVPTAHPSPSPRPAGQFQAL
Assay: SPR ProteOn, cynoPD1-ECD; RANGE high replicate; RANGE high replicate
Could you label it YES if measured kon is 300000 M⁻¹ s⁻¹ or higher, and NO otherwise?

Previously resolved entries follow.
Binder: PD1B175 (antibody, V domains shown, Tested as IgG2sigma; also called PD1H163/PH9L3) VH: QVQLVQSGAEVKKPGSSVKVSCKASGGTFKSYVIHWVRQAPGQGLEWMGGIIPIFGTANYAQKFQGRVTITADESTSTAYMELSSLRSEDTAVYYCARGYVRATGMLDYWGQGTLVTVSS VL: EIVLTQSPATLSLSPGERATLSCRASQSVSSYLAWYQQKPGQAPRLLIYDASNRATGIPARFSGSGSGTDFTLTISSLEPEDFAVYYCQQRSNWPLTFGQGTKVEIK
Label: NO
//
Binder: PD1B184 (antibody, human IgG2, kappa, V domains shown, IgG2sigma/kappa; VH 43, VL 50; also called PD1H3/PD1L128) VH: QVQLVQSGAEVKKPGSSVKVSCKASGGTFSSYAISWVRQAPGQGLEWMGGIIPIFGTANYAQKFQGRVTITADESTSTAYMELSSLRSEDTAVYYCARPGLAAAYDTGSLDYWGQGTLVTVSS VL: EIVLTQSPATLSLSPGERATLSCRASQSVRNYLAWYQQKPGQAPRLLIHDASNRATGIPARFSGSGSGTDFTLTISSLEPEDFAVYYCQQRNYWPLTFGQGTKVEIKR
Label: NO
//
Binder: PD1B187 (antibody, V domains shown, Tested as IgG2sigma; also called PD1H3/PD1L148) VH: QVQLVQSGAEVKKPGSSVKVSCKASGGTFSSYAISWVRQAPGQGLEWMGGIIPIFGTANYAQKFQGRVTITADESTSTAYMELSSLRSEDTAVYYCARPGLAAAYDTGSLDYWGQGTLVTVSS VL: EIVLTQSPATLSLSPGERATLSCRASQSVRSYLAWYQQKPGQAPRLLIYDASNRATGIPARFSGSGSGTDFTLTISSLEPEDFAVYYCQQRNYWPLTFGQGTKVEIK
Label: YES

Turning now to a further binder:
## Input Could you tell me if the measured kon of PD1B192 (antibody, human IgG2, kappa, V domains shown, IgG2sigma/kappa; VH 43, VL 57; also called PD1H3/PD1L133) VH: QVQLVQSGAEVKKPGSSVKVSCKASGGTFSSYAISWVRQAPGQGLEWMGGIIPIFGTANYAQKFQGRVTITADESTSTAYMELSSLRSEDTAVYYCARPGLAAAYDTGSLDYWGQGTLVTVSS VL: EIVLTQSPATLSLSPGERATLSCRASQSVDSYLAWYQQKPGQAPRLLIHDASNRATGIPARFSGSGSGTDFTLTISSLEPEDFAVYYCQQRNYWPLTFGQGTKVEIKR reaches 300000 M⁻¹ s⁻¹ or more?
## Output YES
